Reported CVS-11 neutralizing antibody titer (RFFIT), IU/µM values follow for various binders
# SYSTEM NAME: Rabies virus glycoprotein G, Challenge Virus Standard (CVS)-11 strain (Rabies virus, strain CVS-11 (genotype 1 Lyssavirus)) (UniProt O92284)
# Sequence (O92284 20-524 limits assumed): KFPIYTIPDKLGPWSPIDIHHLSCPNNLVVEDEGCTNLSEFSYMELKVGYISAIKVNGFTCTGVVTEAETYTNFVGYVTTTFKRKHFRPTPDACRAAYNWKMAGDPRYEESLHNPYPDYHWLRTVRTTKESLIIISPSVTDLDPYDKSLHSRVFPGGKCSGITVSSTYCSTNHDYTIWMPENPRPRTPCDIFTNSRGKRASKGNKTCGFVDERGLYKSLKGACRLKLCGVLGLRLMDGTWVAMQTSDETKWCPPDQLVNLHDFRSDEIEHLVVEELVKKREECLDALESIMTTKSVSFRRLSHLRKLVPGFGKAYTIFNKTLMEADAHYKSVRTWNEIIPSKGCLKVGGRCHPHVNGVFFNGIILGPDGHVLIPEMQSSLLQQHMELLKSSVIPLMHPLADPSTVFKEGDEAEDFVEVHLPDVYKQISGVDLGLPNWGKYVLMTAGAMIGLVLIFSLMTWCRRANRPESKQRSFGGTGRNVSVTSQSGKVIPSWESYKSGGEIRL
# MEASUREMENT PROTOCOL: cell-based or functional assay
PROPERTY LABEL: CVS-11 neutralizing antibody titer (RFFIT), IU/µM (IU/µM)

BINDER | LT GT EQ | VALUE OBSERVED
LG212G2 (VHH) VHH: EVQLVESGGGLVQPGGSLRLSCAASGFTFGSHDMSWVRQAPGKGSEWVSGIKSGGGSTLYADSVKGRFAISRDNAKNTLYLQMNSLKPEDTAVYYCATDLYGSTWYPGEDRGTQVTVSS | = | 0.14
LG191E4 (VHH) VHH: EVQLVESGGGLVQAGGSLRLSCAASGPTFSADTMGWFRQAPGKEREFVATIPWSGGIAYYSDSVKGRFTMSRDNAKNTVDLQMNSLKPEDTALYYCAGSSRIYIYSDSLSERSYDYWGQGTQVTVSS | < | 0.01
LG212C12 (VHH) VHH: EVQLVESGGGLVQPGGSLRLSCAASGFTFGSSDMSWVRQAPGKGPEWVSGINSGGGRTLYADSVKGRFTISRDNAKNTLYLQMNSLKSEDTAVYYCATDLYGSSWYTDYWSQGTQVTVSS | = | 4.6
